The measurements presented in this section are drawn from patent US20140357713A1.

System: Staphulococcus aureus (ATCC 29213)
Experiment: Minimum inhibitory concentration (MIC) assay, Example 33
Assay type: cell-based, Staphylococcus aureus
Conditions: Staphylococcus aureus, ATCC29213, Table 19 summary
Where a name gives a salt, the structure may show the parent alone.

{"COMPOUND": "CCCCCCCCCCCCOC(=O)C(C(C)C)N(C)C (stereo not drawn) [Nex-53, hydrochloride]", "BOUND_OPERATOR": "=", "MIC [µg/mL]": 6250}
{"COMPOUND": "CCCCCCCCOC(=O)C(C)N(C)C (stereo not drawn) [Nex-70, hydrochloride]", "BOUND_OPERATOR": "=", "MIC [µg/mL]": 3130}
{"COMPOUND": "CCCCCCCCCCCC(C)OC(=O)C(C)N(C)C (stereo not drawn) [Nex-64, hydrochloride]", "BOUND_OPERATOR": "=", "MIC [µg/mL]": 3130}
{"COMPOUND": "CCCCCCCCCCCCCOC(=O)C(C)N(C)C (stereo not drawn) [Nex-69, hydrochloride]", "BOUND_OPERATOR": "=", "MIC [µg/mL]": 3130}
{"COMPOUND": "CCCCCCCCCCCCOC(=O)CN(C)C [Nex-52, hydrochloride]", "BOUND_OPERATOR": "=", "MIC [µg/mL]": 200}
{"COMPOUND": "CCCCCCCCCCCCCCOC(=O)C(C)N(C)C (stereo not drawn) [Nex-66, hydrochloride]", "BOUND_OPERATOR": "=", "MIC [µg/mL]": 3130}
{"COMPOUND": "CCCCCCCCCCCCOC(=O)C(CC(C)C)N(C)C (stereo not drawn) [Nex-55, hydrochloride]", "BOUND_OPERATOR": "=", "MIC [µg/mL]": 6250}
{"COMPOUND": "CCCCCCCCCCCCOC(=O)C(Cc1ccccc1)N(C)C (stereo not drawn) [Nex-54, hydrochloride]", "BOUND_OPERATOR": "≥", "MIC [µg/mL]": 12500}
{"COMPOUND": "CCCCCCCCCCOC(=O)C(C)N(C)C (stereo not drawn) [Nex-68, hydrochloride]", "BOUND_OPERATOR": "=", "MIC [µg/mL]": 3130}
